Parameter melting point: see the listing below.

Consider the reported melting point for these molecules:
OCc1ccc(C#Cc2cnn3c(C(F)(F)F)cc(-c4ccc(C(F)(F)F)cc4)nc23)cc1 : 200 to 202 °C
NS(=O)(=O)c1cc(C#Cc2cnc3c(C(F)(F)F)cc(-c4ccc(C(F)(F)F)cc4)cn23)c(F)cc1F : 306 to 307 °C
NS(=O)(=O)c1ccc(C#Cc2ncn3c(C(F)(F)F)cc(-c4ccc(C(F)(F)F)cc4)nc23)s1 : 255 °C

Now for another entry.
query: Please report the recorded melting point for COCCNS(=O)(=O)c1ccc(C#Cc2cnn3c(C(F)F)cc(-c4ccc(C(F)(F)F)cc4)nc23)cc1 .
result: 184 to 186 °C
